target: DNA polymerase kappa (Homo sapiens) (UniProt Q9UBT6); test: Inhibition of C-terminal His6-tagged human DNA polymerase kappa (amino acids 1 to 560) using bovine deoxyribonuclease 1-treated DNA and dNTP as the DNA template-primer and nucleotide substrate at 10 uM after 60 mins
Sequence (Q9UBT6 whole entry, the tested form may be a part): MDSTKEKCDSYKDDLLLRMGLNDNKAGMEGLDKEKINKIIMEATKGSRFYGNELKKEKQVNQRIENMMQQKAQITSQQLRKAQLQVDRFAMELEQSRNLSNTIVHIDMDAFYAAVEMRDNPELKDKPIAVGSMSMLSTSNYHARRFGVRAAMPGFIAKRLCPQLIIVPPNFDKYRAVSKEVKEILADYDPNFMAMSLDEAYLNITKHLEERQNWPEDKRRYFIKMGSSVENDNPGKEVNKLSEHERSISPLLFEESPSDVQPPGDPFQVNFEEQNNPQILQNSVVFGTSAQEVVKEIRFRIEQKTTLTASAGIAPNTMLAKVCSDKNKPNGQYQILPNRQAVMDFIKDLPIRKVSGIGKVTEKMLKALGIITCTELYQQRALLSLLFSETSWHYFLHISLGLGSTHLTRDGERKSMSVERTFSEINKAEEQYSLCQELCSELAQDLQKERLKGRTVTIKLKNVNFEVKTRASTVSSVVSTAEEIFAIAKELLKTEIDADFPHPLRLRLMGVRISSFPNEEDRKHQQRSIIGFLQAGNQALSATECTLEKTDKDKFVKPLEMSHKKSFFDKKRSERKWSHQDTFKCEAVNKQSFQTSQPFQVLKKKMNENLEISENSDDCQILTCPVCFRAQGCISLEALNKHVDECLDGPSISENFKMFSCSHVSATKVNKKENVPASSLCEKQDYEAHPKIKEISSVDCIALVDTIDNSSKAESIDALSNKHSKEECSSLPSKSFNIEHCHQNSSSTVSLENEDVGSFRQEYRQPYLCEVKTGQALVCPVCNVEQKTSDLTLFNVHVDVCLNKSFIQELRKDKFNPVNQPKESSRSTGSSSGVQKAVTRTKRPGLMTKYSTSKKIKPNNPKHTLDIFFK
Calls of active or inactive are those of the source. The rule behind the calls is not given here.
test-readout: inhibition

molecule	assay-system	test-readout	value-measured
O=C1C=CC(=O)c2c(O)cccc21 [JUGLONE]	DNA polymerase kappa (Homo sapiens) (UniProt Q9UBT6)	inhibition	Active
CC(=O)Oc1cccc2c1C(=O)C=CC2=O	DNA polymerase kappa (Homo sapiens) (UniProt Q9UBT6)	inhibition	Active
CCC(=O)O [PROPIONIC ACID]	DNA polymerase kappa (Homo sapiens) (UniProt Q9UBT6)	inhibition	inactive
CCCCCCCCCCCC(=O)O [DODECANOATE]	DNA polymerase kappa (Homo sapiens) (UniProt Q9UBT6)	inhibition	inactive
CC(=O)O [ACETIC ACID]	DNA polymerase kappa (Homo sapiens) (UniProt Q9UBT6)	inhibition	inactive
CCC(=O)Oc1cccc2c1C(=O)C=CC2=O	DNA polymerase kappa (Homo sapiens) (UniProt Q9UBT6)	inhibition	Active
CCCCCCCCCCCCCCCCCC(=O)O [STEARIC ACID]	DNA polymerase kappa (Homo sapiens) (UniProt Q9UBT6)	inhibition	inactive
CC/C=C\C/C=C\C/C=C\C/C=C\C/C=C\CCCC(=O)Oc1cccc2c1C(=O)C=CC2=O	DNA polymerase kappa (Homo sapiens) (UniProt Q9UBT6)	inhibition	Active
CCCCC/C=C\C/C=C\CCCCCCCC(=O)Oc1cccc2c1C(=O)C=CC2=O	DNA polymerase kappa (Homo sapiens) (UniProt Q9UBT6)	inhibition	Active
CCCCCCCCCCCC(=O)Oc1cccc2c1C(=O)C=CC2=O	DNA polymerase kappa (Homo sapiens) (UniProt Q9UBT6)	inhibition	Active
CCCCCCCC/C=C\CCCCCCCC(=O)Oc1cccc2c1C(=O)C=CC2=O	DNA polymerase kappa (Homo sapiens) (UniProt Q9UBT6)	inhibition	Active
CCCCCCCC/C=C\CCCCCCCC(=O)O [OLEIC ACID]	DNA polymerase kappa (Homo sapiens) (UniProt Q9UBT6)	inhibition	inactive
CCCCC/C=C\C/C=C\CCCCCCCC(=O)O [LINOLEIC ACID]	DNA polymerase kappa (Homo sapiens) (UniProt Q9UBT6)	inhibition	inactive
CCCCCCCCCCCCCCCCCC(=O)Oc1cccc2c1C(=O)C=CC2=O	DNA polymerase kappa (Homo sapiens) (UniProt Q9UBT6)	inhibition	Active
CC/C=C\C/C=C\C/C=C\CCCCCCCC(=O)O [LINOLENIC ACID]	DNA polymerase kappa (Homo sapiens) (UniProt Q9UBT6)	inhibition	inactive
CC/C=C\C/C=C\C/C=C\C/C=C\C/C=C\C/C=C\CCC(=O)Oc1cccc2c1C(=O)C=CC2=O	DNA polymerase kappa (Homo sapiens) (UniProt Q9UBT6)	inhibition	Active
CCCCCC(=O)Oc1cccc2c1C(=O)C=CC2=O	DNA polymerase kappa (Homo sapiens) (UniProt Q9UBT6)	inhibition	Active
CCCCCC(=O)O [HEXANOATE]	DNA polymerase kappa (Homo sapiens) (UniProt Q9UBT6)	inhibition	inactive
CC/C=C\C/C=C\C/C=C\C/C=C\C/C=C\CCCC(=O)O [ICOSAPENT]	DNA polymerase kappa (Homo sapiens) (UniProt Q9UBT6)	inhibition	inactive
CC/C=C\C/C=C\C/C=C\CCCCCCCC(=O)Oc1cccc2c1C(=O)C=CC2=O	DNA polymerase kappa (Homo sapiens) (UniProt Q9UBT6)	inhibition	Active
CC/C=C\C/C=C\C/C=C\C/C=C\C/C=C\C/C=C\CCC(=O)O [DOCONEXENT]	DNA polymerase kappa (Homo sapiens) (UniProt Q9UBT6)	inhibition	inactive

* * *

molecular target: DNA nucleotidylexotransferase (Bos taurus, UniProt P06526)
Sequence (P06526 whole entry): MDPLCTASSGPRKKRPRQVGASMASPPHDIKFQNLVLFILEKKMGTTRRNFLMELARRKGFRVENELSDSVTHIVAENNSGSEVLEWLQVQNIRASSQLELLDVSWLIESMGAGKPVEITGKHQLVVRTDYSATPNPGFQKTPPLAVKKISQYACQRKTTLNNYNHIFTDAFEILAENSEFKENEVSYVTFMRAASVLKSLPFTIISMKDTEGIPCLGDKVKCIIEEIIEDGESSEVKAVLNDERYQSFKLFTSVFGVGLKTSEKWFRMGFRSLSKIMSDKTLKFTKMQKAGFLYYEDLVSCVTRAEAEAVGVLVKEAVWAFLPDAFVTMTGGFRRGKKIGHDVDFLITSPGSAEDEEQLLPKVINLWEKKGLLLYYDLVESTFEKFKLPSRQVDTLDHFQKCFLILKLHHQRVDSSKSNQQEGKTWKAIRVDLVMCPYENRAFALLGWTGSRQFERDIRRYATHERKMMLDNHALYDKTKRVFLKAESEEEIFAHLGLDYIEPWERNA
test-readout: IC50 (µM)

chemical-string	assay-system	test-readout	u	value-measured
CCCCCCCCCCCC(=O)Oc1cccc2c1C(=O)C=CC2=O	DNA nucleotidylexotransferase (Bos taurus, UniProt P06526)	IC50	µM	8.4
CCCCCCCC/C=C\CCCCCCCC(=O)Oc1cccc2c1C(=O)C=CC2=O	DNA nucleotidylexotransferase (Bos taurus, UniProt P06526)	IC50	µM	11.9

* * *

biological target: DNA-directed DNA/RNA polymerase mu (Homo sapiens, UniProt Q9NP87)
Sequence (Q9NP87 whole entry): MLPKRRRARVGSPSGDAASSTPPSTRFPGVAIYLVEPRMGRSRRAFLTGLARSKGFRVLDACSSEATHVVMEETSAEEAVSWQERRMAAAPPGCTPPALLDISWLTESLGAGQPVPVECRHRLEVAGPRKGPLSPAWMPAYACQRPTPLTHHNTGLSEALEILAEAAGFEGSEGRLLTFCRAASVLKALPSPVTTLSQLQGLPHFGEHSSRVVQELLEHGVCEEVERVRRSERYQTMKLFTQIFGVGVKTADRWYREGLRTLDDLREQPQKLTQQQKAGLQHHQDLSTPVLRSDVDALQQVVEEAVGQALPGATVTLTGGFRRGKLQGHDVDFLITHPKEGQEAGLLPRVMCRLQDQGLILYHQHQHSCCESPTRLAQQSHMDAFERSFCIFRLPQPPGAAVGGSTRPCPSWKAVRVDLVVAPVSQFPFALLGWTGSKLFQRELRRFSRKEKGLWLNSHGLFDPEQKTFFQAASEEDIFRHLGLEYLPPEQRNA
pIC50: −log10 of the molar value.
test-readout: pIC50

chemical-string	value-measured
CCCCCCCC/C=C\CCCCCCCC(=O)Oc1cccc2c1C(=O)C=CC2=O	4.97
CCCCCCCCCCCC(=O)Oc1cccc2c1C(=O)C=CC2=O	5.10

* * *

Measured IC50 accompanies every entry in the list below.
assay: Inhibition of Escherichia coli DNA polymerase 1 Klenow fragment using poly(dA)/oligo(dT)18 (A/T = 2/1) and dTTP as the DNA template-primer and nucleotide substrate after 60 mins

chemical-string	IC50
CCCCCCCC/C=C\CCCCCCCC(=O)Oc1cccc2c1C(=O)C=CC2=O	> 100 µM
CCCCCCCCCCCC(=O)Oc1cccc2c1C(=O)C=CC2=O	> 100 µM

* * *

organism: Homo sapiens; experiment: Inhibition of histidine-tagged human DNA polymerase gamma using poly(dA)/oligo(dT)18 (A/T = 2/1) and dTTP as the DNA template-primer and nucleotide substrate at 10 uM after 60 mins
Calls of active or inactive are those of the source. The rule behind the calls is not given here.
Outcomes: active, inactive

chemical-string	group-label
CCCCCCCC/C=C\CCCCCCCC(=O)Oc1cccc2c1C(=O)C=CC2=O	active
CCCCCC(=O)Oc1cccc2c1C(=O)C=CC2=O	active
CC1=CC(=O)c2ccccc2C1=O	active
CC/C=C\C/C=C\C/C=C\CCCCCCCC(=O)O	inactive
CC(=O)O	inactive
CC/C=C\C/C=C\C/C=C\C/C=C\C/C=C\CCCC(=O)O	inactive
CC/C=C\C/C=C\C/C=C\C/C=C\C/C=C\CCCC(=O)Oc1cccc2c1C(=O)C=CC2=O	active
CCCCCCCCCCCC(=O)Oc1cccc2c1C(=O)C=CC2=O	active
CCCCCCCCCCCCCCCCCC(=O)Oc1cccc2c1C(=O)C=CC2=O	active
CCCCCCCC/C=C\CCCCCCCC(=O)O	inactive
CCCCC/C=C\C/C=C\CCCCCCCC(=O)Oc1cccc2c1C(=O)C=CC2=O	active

* * *

Measured IC50 accompanies every entry in the list below.
biological target: UniProt:Q72547; experiment: Inhibition of HIV-1 reverse transcriptase using poly(rA)/oligo(dT)18(A/T = 2/1) and dTTP as the DNA template-primer and nucleotide substrate after 60 mins

chemical-string	IC50
CCCCCCCCCCCC(=O)Oc1cccc2c1C(=O)C=CC2=O	> 100 µM
CCCCCCCC/C=C\CCCCCCCC(=O)Oc1cccc2c1C(=O)C=CC2=O	> 100 µM

* * *

Measured IC50 accompanies every entry in the list below.
biological target: DNA polymerase beta (Rattus norvegicus, UniProt P06766)
test-readout: IC50 (µM)

chemical-string	test-readout	u	value-measured
CCCCCCCCCCCC(=O)Oc1cccc2c1C(=O)C=CC2=O	IC50	µM	7.6
CCCCCCCC/C=C\CCCCCCCC(=O)Oc1cccc2c1C(=O)C=CC2=O	IC50	µM	11.5

* * *

species: Bos taurus; test: Inhibition of calf DNA polymerase alpha using bovine deoxyribonuclease 1-treated DNA and dNTP as the DNA template-primer and nucleotide substrate at 10 uM after 60 mins
Active and inactive are the calls of the source. The rule behind the calls is not given here.
Outcomes: active, inactive

compound	group-label
CC/C=C\C/C=C\C/C=C\C/C=C\C/C=C\C/C=C\CCC(=O)O [DOCONEXENT]	inactive
CC/C=C\C/C=C\C/C=C\C/C=C\C/C=C\C/C=C\CCC(=O)Oc1cccc2c1C(=O)C=CC2=O	active
CC/C=C\C/C=C\C/C=C\CCCCCCCC(=O)O [LINOLENIC ACID]	inactive
CC(=O)Oc1cccc2c1C(=O)C=CC2=O	active
CC/C=C\C/C=C\C/C=C\C/C=C\C/C=C\CCCC(=O)Oc1cccc2c1C(=O)C=CC2=O	active
CCCCCC(=O)O [HEXANOATE]	inactive
CC/C=C\C/C=C\C/C=C\C/C=C\C/C=C\CCCC(=O)O [ICOSAPENT]	inactive
CCCCCCCC/C=C\CCCCCCCC(=O)O [OLEIC ACID]	inactive
CC(=O)O [ACETIC ACID]	inactive
CCC(=O)Oc1cccc2c1C(=O)C=CC2=O	active
CCCCCCCCCCCCCCCCCC(=O)O [STEARIC ACID]	inactive
CCCCCCCCCCCC(=O)Oc1cccc2c1C(=O)C=CC2=O	active
CC/C=C\C/C=C\C/C=C\CCCCCCCC(=O)Oc1cccc2c1C(=O)C=CC2=O	active
CCCCCCCCCCCCCCCCCC(=O)Oc1cccc2c1C(=O)C=CC2=O	active
O=C1C=CC(=O)c2c(O)cccc21 [JUGLONE]	active

* * *

assay: Inhibition of human DNA polymerase epsilon using poly(dA)/oligo(dT)18 (A/T = 2/1) and dTTP as the DNA template-primer and nucleotide substrate after 60 mins
pIC50: −log10 of the molar value.

chemical-string	pIC50
CCCCCCCC/C=C\CCCCCCCC(=O)Oc1cccc2c1C(=O)C=CC2=O	6.15
CCCCCCCCCCCC(=O)Oc1cccc2c1C(=O)C=CC2=O	5.18
